Hello, the source for this data is ChEMBL document CHEMBL2417485, in case you need it.

The entries below come with measured pIC50 values attached.
test: Antiproliferative activity against mouse BNL 1ME A.7R.1 cells after 72 hrs by MTT assay; assay type: functional, cell-based
pIC50: −log10 of the molar value.
quantity.measured: pIC50

given_smiles=Cl.c1ccc(-c2cccc(Nc3ncnc4cc5c(cc34)OCCO5)c2)cc1 recorded_number=5.57
given_smiles=COc1cc2ncnc(Nc3cccc(Br)c3)c2cc1OC recorded_number=5.02
given_smiles=Cl.c1ccc(-c2cccc(Nc3ncnc4cc5c(cc34)OCO5)c2)cc1 recorded_number=5.55
given_smiles=Cl.c1ccc(-c2cccc(Nc3ncnc4cc5c(cc34)OCCCO5)c2)cc1 recorded_number=5.52

---

system: Mus musculus; test: Inhibition of FGF2-induced neovascularization in C57/BL6 mouse assessed as reduction in hemoglobin concentration in matrigel plug at 1 uM, sc measured after 7 days; type: functional, organism-based
Calls of active or inactive are those of the source. The rule behind the calls is not given here.
quantity.measured: inhibition

given_smiles=Cl.c1ccc(-c2cccc(Nc3ncnc4cc5c(cc34)OCO5)c2)cc1 quantity_measured=inhibition result=Active
given_smiles=Cl.c1ccc(-c2cccc(Nc3ncnc4cc5c(cc34)OCCCO5)c2)cc1 quantity_measured=inhibition result=Active
given_smiles=Cl.c1ccc(-c2cccc(Nc3ncnc4cc5c(cc34)OCCO5)c2)cc1 quantity_measured=inhibition result=Active
